- Tested System: murine TLR7 (Mus musculus)
- Sequence (P58681 27-1050): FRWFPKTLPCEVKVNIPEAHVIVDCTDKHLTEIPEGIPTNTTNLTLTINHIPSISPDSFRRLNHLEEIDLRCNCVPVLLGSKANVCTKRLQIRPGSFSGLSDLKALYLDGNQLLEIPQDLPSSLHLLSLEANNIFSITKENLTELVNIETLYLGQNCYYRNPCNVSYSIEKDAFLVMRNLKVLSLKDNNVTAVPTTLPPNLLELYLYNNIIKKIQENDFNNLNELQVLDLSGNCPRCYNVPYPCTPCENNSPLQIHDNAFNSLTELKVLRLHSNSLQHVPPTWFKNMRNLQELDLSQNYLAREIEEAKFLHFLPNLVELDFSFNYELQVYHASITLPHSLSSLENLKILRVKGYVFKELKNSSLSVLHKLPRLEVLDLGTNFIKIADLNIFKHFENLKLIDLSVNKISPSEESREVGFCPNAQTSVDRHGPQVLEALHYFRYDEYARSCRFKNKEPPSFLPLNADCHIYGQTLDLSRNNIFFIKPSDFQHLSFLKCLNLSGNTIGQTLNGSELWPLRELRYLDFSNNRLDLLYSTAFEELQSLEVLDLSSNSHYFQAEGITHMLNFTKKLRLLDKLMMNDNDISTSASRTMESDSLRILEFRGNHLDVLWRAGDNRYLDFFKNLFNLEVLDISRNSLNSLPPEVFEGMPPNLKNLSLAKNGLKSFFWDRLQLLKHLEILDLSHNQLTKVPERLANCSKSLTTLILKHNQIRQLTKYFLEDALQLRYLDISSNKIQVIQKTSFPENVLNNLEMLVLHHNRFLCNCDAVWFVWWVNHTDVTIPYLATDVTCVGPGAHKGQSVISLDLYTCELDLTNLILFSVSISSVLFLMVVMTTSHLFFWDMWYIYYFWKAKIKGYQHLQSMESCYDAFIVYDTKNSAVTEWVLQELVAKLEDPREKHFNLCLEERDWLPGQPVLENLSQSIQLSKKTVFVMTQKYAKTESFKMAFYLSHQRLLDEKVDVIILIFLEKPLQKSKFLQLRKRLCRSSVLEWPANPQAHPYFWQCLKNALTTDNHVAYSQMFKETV
- Experiment Summary: HEK293-Blue-mTLR7 assay (SEAP reporter)
- Settings: HEK293-Blue-mTLR7 cells, 20 hours, Quanti-Blue; read-out: EC50 murine TLR7 activation
pEC50: −log10 of the molar value.

Compound	Tested System	pEC50
Nc1nc2c(sc(=O)n2[C@H]2CS[C@@H](C(O)C3CC3)O2)c(=O)[nH]1 (single isomer, unassigned)	murine TLR7 (Mus musculus)	5.11

====

- Tested System: human TLR7 (Homo sapiens)
- Sequence (Q9NYK1 27-1049): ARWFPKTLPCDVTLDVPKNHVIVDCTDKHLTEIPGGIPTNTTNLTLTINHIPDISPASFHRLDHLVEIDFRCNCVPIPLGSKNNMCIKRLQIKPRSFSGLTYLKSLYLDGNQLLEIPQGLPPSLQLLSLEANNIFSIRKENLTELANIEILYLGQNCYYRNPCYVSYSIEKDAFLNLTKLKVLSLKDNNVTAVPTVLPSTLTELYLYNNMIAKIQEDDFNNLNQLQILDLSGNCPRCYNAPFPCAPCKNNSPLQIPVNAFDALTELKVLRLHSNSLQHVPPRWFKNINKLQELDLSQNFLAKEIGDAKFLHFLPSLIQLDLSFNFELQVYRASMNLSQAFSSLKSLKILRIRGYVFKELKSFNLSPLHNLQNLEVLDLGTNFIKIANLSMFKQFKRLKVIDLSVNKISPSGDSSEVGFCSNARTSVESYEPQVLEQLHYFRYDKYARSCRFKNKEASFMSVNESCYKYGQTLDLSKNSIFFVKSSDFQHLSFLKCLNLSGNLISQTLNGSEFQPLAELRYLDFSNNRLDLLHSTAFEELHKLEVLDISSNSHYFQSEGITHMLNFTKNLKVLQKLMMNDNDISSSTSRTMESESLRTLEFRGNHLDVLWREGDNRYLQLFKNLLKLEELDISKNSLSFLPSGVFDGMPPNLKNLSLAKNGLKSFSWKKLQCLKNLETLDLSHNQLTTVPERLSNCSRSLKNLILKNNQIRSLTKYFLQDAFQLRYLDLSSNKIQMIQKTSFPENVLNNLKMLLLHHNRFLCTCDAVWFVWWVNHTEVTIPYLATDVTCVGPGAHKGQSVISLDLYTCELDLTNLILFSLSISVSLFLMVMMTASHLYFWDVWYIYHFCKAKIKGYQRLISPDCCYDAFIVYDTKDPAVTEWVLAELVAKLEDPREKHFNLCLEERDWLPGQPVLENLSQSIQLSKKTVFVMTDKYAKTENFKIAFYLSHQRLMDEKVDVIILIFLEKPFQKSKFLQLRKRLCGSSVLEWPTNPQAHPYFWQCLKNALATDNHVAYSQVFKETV
- Experiment Summary: HEK293-Blue-hTLR-7 cells assay (SEAP reporter)
- Settings: 20 hours incubation

Compound	EC50 (µM)
C=CCC1SC(CO)OC1n1c(=O)sc2c(=O)[nH]c(N)nc21 (single isomer, unassigned)	178
C#CC(O)[C@H]1O[C@@H](n2c(=O)sc3c(=O)[nH]c(N)nc32)CS1 (single isomer, unassigned)	16.7
C[C@@H]1S[C@@H](CO)OC1n1c(=O)sc2c(=O)[nH]c(N)nc21 (single isomer, unassigned)	53.9
CC#CC(O)[C@H]1O[C@@H](n2c(=O)sc3c(=O)[nH]c(N)nc32)CS1 (single isomer, unassigned) [Example 10-A]	7.6
CC#CC(O)[C@H]1O[C@@H](n2c(=O)sc3c(=O)[nH]c(N)nc32)CS1 (single isomer, unassigned) [Example 10-B]	122
C[C@@H]1S[C@@H](C(O)C2CC2)OC1n1c(=O)sc2c(=O)[nH]c(N)nc21 (single isomer, unassigned) [Example 23-B]	31.5
C[C@@H]1S[C@@H](C(O)C2CC2)OC1n1c(=O)sc2c(=O)[nH]c(N)nc21 (single isomer, unassigned) [Example 23-A]	4.5
CCCC(O)[C@H]1O[C@@H](n2c(=O)sc3c(=O)[nH]c(N)nc32)CS1 (single isomer, unassigned) [Example 9-B]	160
C=CCC(O)[C@H]1O[C@@H](n2c(=O)sc3c(=O)[nH]c(N)nc32)CS1 (single isomer, unassigned)	29
Nc1nc2c(sc(=O)n2[C@H]2CS[C@@H](C(O)C3CC3)O2)c(=O)[nH]1 (single isomer, unassigned) [Example 4-B]	306
Nc1nc2c(sc(=O)n2[C@H]2CS[C@@H](C(O)c3cccs3)O2)c(=O)[nH]1 (single isomer, unassigned)	33.9
CC(C)CC(O)[C@H]1O[C@@H](n2c(=O)sc3c(=O)[nH]c(N)nc32)CS1 (single isomer, unassigned) [Example 17-B]	93.6
Nc1nc2c(sc(=O)n2[C@H]2CS[C@@H](CO)O2)c(=O)[nH]1	125
CC(C)CC(O)[C@H]1O[C@@H](n2c(=O)sc3c(=O)[nH]c(N)nc32)CS1 (single isomer, unassigned) [Example 17-A]	63.3
CC#CC(O)C1OC(n2c(=O)sc3c(=O)[nH]c(N)nc32)[C@H](C)S1 (single isomer, unassigned)	10.1
CCCCC(O)[C@H]1O[C@@H](n2c(=O)sc3c(=O)[nH]c(N)nc32)CS1 (single isomer, unassigned)	32.9
CC[C@H](O)C1OC(n2c(=O)sc3c(=O)[nH]c(N)nc32)[C@H](C)S1 (single isomer, unassigned)	4.7
CC#CC(OC(C)=O)[C@H]1O[C@@H](n2c(=O)sc3c(=O)[nH]c(N)nc32)CS1 (single isomer, unassigned)	151
CC(=O)OC(C1CC1)[C@H]1O[C@@H](n2c(=O)sc3c(=O)[nH]c(N)nc32)CS1 (single isomer, unassigned)	61.7
Nc1nc2c(sc(=O)n2C2CSC(CO)O2)c(=O)[nH]1 (stereo not shown)	97
Nc1nc2c(sc(=O)n2[C@H]2CS[C@@H](C(O)C3CC3)O2)c(=O)[nH]1 (single isomer, unassigned) [Example 4-A]	7.9
CCCC(O)[C@H]1O[C@@H](n2c(=O)sc3c(=O)[nH]c(N)nc32)CS1 (single isomer, unassigned) [Example 9-A]	10
CC(O)[C@H]1O[C@@H](n2c(=O)sc3c(=O)[nH]c(N)nc32)CS1 (single isomer, unassigned)	46.5
CCC(O)[C@H]1O[C@@H](n2c(=O)sc3c(=O)[nH]c(N)nc32)CS1 (single isomer, unassigned)	16.5
Nc1nc2c(sc(=O)n2[C@H]2CS[C@@H](C(O)C#CC3CC3)O2)c(=O)[nH]1 (single isomer, unassigned)	54.3
